Target: VEGFR-2 (Homo sapiens)
Sequence (P35968 20-1356): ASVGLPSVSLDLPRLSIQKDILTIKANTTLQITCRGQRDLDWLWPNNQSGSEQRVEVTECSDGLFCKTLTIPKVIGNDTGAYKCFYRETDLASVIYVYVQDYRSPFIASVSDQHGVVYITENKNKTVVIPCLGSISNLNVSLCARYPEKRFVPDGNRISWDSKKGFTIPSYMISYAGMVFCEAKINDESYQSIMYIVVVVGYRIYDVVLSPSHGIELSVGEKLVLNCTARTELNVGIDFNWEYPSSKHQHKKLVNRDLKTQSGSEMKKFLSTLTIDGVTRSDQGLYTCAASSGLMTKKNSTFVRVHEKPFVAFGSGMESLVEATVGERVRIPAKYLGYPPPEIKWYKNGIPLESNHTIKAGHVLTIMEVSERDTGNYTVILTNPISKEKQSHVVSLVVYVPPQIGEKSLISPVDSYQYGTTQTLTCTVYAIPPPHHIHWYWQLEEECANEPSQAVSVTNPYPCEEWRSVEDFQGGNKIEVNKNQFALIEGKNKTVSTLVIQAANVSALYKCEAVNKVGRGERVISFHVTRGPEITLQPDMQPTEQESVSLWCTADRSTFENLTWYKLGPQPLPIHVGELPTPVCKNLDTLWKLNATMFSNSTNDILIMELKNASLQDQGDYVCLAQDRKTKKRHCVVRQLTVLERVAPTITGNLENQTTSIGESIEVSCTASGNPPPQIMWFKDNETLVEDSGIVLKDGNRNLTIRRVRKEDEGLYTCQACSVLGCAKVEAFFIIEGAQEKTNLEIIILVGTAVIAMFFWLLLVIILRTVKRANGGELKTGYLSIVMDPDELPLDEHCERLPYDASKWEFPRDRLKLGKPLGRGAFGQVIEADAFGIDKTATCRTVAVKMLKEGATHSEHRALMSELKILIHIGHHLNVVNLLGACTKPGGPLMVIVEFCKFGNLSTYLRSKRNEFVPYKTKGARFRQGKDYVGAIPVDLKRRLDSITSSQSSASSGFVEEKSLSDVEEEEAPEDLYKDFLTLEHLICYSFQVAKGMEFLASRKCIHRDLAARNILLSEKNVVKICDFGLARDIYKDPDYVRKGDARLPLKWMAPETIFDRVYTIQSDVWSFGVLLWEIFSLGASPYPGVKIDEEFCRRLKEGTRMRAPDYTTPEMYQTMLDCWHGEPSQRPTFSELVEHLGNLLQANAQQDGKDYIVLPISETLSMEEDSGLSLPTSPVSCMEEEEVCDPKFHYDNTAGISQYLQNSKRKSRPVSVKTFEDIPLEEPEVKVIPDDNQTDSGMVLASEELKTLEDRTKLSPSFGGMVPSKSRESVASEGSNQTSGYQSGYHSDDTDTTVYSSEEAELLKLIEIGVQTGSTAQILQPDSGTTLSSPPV
measure-name: pIC50
Answers are plain numbers, as −log10 of the molar value.

INPUT: Param item = `O=C(CCc1nc2cc(Cl)ccc2[nH]c1=O)Nc1ccccc1O` ; retrieve measured pIC50.
OUTPUT: 6.88

====

Test system: MCF-7
Experiment: MTT cytotoxicity assay, MCF-7
Format: cell-based, human
Details: Homo sapiens, MCF7, read-out: Cytotoxic activity IC50 MCF-7
measure-name: pIC50
Numbers only, as −log10 of the molar value.

Examples from the recorded data:
>  <compound>
Cc1cccc(NC(=O)CCc2nc3cc(Cl)ccc3[nH]c2=O)c1

>  <pIC50>
4.61

$$$$
>  <compound>
O=C(CCc1nc2cc(Cl)ccc2[nH]c1=O)Nc1ccccc1

>  <pIC50>
4.41

$$$$
>  <compound>
Cc1ccc(NC(=O)CCc2nc3cc(Cl)ccc3[nH]c2=O)cc1

>  <pIC50>
4.27

$$$$
>  <compound>
COc1cccc2c1C(=O)c1c(O)c3c(c(O)c1C2=O)C[C@@](O)(C(=O)CO)C[C@@H]3O[C@H]1C[C@H](N)[C@H](O)[C@H](C)O1 [DOX, Doxorubicin, reference compound]

>  <pIC50>
5.13

$$$$
>  <compound>
Cc1ccccc1NC(=O)CCc1nc2cc(Cl)ccc2[nH]c1=O

>  <pIC50>
4.72

$$$$

Give pIC50 for each of the items listed below.
1. O=C(CCc1nc2cc(Cl)ccc2[nH]c1=O)Nc1ccc(C(=O)O)cc1
2. O=C(CCc1nc2cc(Cl)ccc2[nH]c1=O)Nc1ccccc1O

OUTPUT:
[4.17, 5.16]
